// data source = patent US6380185B1

# Assay system: estrogen receptor (ER) (Homo sapiens, UniProt P03372)
# Sequence (P03372 whole entry, species assumed): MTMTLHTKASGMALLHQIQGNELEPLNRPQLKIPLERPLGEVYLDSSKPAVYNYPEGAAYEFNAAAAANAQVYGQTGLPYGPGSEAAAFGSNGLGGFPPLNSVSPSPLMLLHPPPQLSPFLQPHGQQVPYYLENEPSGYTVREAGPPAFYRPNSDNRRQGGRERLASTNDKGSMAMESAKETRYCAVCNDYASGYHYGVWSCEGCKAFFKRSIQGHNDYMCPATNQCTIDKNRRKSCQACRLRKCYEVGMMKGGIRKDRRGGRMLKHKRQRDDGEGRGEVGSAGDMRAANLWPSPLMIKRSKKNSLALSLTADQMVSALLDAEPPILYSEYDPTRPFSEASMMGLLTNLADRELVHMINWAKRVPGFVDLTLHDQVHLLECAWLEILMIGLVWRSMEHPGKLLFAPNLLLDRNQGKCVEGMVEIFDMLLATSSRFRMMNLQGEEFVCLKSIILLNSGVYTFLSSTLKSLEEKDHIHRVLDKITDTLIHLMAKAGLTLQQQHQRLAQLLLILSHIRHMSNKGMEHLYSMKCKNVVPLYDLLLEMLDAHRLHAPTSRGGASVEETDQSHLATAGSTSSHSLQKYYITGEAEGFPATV
Experimental endpoint: IC50 (nM)
Express your answer in nM, writing the number without its unit.

Req: Enter reported IC50 observed with estrogen receptor (ER) (Homo sapiens, UniProt P03372) for "Cc1c(-c2ccc(O)cc2)n(C(=O)c2ccc(OCCN3CCCCC3)cc2)c2ccc(O)cc12"
Resp: 200
